Value source: ChEMBL document CHEMBL1150977

For reference, pKd measured on Serine/threonine-protein kinase PAK 4 (Homo sapiens, UniProt O96013):
pKd: −log10 of the molar value.

Example cases with answers are listed next.
Oc1ccc(-c2nc(-c3ccncc3)c(-c3ccc(F)cc3)[nH]2)cc1	< 5.00
CCOc1cc2ncc(C#N)c(Nc3ccc(F)c(Cl)c3)c2cc1NC(=O)/C=C/CN(C)C	< 5.00
COCC(=O)NC/C=C/c1ccc2ncnc(Nc3ccc(Oc4ccc(C)nc4)c(C)c3)c2c1	< 5.00

Kindly review the next molecule as well.
input: Would you kindly share the measured pKd for NC(=O)c1ccc(-c2nc(-c3ccc4c(c3)OCO4)c(-c3ccccn3)[nH]2)cc1 ?
output: < 5.00

====

# pKd per record follows
- System: Calcium/calmodulin-dependent protein kinase kinase 2 (Homo sapiens)
- Sequence (Q96RR4 whole entry): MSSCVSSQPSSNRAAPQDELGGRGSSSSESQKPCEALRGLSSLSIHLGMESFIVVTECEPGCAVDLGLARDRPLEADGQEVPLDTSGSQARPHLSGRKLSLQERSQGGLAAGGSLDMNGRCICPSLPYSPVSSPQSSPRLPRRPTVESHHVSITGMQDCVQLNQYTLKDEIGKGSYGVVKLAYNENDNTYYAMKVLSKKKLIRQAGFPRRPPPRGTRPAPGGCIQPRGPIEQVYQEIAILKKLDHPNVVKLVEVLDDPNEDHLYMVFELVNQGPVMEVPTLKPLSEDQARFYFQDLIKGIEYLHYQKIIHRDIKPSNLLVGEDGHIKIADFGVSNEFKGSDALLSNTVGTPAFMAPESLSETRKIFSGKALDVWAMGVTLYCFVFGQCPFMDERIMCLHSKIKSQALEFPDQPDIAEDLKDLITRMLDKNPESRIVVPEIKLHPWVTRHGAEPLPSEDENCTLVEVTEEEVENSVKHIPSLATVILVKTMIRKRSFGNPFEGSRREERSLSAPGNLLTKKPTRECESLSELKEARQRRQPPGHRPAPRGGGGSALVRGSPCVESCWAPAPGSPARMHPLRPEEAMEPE
pKd: −log10 of the molar value.

Example cases with answers are listed next.
NC(=O)c1ccc(-c2nc(-c3ccc4c(c3)OCO4)c(-c3ccccn3)[nH]2)cc1	< 5.00
COCC(=O)NC/C=C/c1ccc2ncnc(Nc3ccc(Oc4ccc(C)nc4)c(C)c3)c2c1	< 5.00

Kindly review the next compound as well.
input: Would you kindly share the measured pKd for Oc1ccc(-c2nc(-c3ccncc3)c(-c3ccc(F)cc3)[nH]2)cc1 ?
output: < 5.00

====

For reference, Kd measured on Glycogen synthase kinase-3 alpha (Homo sapiens):

CCOc1cc2ncc(C#N)c(Nc3ccc(F)c(Cl)c3)c2cc1NC(=O)/C=C/CN(C)C	> 10 µM
CCN1CCN(Cc2ccc(NC(=O)Nc3ccc(Oc4cc(NC)ncn4)cc3)cc2C(F)(F)F)CC1	> 10 µM
NC(=O)c1ccc(-c2nc(-c3ccc4c(c3)OCO4)c(-c3ccccn3)[nH]2)cc1	> 10 µM

input: Would you kindly share the measured Kd for Nc1nc(Nc2ccc(S(N)(=O)=O)cc2)nn1C(=O)c1c(F)cccc1F ?
output: 0.16 µM

input: Would you kindly share the measured Kd for COCC(=O)NC/C=C/c1ccc2ncnc(Nc3ccc(Oc4ccc(C)nc4)c(C)c3)c2c1 ?
output: > 10 µM

input: Would you kindly share the measured Kd for Oc1ccc(-c2nc(-c3ccncc3)c(-c3ccc(F)cc3)[nH]2)cc1 ?
output: > 10 µM

====

- System: Tyrosine-protein kinase ABL1 (Homo sapiens, UniProt P00519, E255K)
- Sequence (P00519 whole entry E255K): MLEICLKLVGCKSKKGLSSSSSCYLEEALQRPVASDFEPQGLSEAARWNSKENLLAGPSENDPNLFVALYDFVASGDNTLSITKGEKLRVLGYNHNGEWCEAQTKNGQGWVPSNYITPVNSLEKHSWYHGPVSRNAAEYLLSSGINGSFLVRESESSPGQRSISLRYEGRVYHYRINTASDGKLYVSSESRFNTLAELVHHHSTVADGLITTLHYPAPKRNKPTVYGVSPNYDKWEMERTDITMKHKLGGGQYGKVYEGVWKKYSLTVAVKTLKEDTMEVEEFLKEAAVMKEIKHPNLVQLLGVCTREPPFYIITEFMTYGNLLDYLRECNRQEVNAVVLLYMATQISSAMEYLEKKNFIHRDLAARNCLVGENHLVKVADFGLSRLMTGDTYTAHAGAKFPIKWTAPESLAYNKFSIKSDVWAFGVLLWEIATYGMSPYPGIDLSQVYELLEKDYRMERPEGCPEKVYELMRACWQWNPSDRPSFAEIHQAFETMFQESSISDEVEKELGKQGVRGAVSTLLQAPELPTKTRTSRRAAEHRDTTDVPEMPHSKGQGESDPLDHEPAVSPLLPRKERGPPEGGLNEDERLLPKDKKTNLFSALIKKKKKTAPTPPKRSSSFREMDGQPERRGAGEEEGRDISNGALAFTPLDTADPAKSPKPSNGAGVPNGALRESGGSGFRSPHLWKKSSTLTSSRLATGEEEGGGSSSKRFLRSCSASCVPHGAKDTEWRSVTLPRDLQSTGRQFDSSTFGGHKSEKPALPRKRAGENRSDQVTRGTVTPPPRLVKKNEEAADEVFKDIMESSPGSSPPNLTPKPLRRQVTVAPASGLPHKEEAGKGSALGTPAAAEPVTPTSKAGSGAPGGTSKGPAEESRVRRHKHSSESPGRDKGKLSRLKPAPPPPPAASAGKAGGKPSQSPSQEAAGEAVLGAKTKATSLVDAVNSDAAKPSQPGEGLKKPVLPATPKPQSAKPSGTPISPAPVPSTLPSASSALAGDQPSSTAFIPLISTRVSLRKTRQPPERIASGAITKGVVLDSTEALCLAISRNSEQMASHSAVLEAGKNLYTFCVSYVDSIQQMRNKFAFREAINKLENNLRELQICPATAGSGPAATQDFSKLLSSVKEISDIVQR
Observed Property: Kd

COCC(=O)NC/C=C/c1ccc2ncnc(Nc3ccc(Oc4ccc(C)nc4)c(C)c3)c2c1	> 10 µM
NC(=O)c1ccc(-c2nc(-c3ccc4c(c3)OCO4)c(-c3ccccn3)[nH]2)cc1	> 10 µM

input: Enter reported Kd observed with Tyrosine-protein kinase ABL1 (Homo sapiens, UniProt P00519, E255K) for Oc1ccc(-c2nc(-c3ccncc3)c(-c3ccc(F)cc3)[nH]2)cc1
output: > 10 µM

====

- System: Activin receptor type-1-like (Homo sapiens)
- Sequence (P37023 whole entry): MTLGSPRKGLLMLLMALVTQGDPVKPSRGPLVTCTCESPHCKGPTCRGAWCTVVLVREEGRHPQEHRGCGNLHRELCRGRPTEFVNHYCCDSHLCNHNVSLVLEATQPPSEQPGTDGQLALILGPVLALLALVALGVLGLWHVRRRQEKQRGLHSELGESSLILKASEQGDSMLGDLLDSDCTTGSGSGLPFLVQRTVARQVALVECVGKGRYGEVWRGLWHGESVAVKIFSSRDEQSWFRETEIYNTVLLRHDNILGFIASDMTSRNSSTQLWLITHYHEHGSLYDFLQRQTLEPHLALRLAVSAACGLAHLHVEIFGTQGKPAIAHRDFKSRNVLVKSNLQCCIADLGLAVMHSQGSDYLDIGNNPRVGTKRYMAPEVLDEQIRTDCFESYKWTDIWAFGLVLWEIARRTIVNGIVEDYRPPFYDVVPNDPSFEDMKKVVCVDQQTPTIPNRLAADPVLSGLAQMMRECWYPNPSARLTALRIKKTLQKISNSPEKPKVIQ
# Kd per record follows

CCOc1cc2ncc(C#N)c(Nc3ccc(F)c(Cl)c3)c2cc1NC(=O)/C=C/CN(C)C	> 10 µM
NC(=O)c1ccc(-c2nc(-c3ccc4c(c3)OCO4)c(-c3ccccn3)[nH]2)cc1	> 10 µM
Oc1ccc(-c2nc(-c3ccncc3)c(-c3ccc(F)cc3)[nH]2)cc1	> 10 µM

Kindly review the next compound as well.
input: Enter reported Kd observed with Activin receptor type-1-like (Homo sapiens) for COCC(=O)NC/C=C/c1ccc2ncnc(Nc3ccc(Oc4ccc(C)nc4)c(C)c3)c2c1
output: > 10 µM
